Data origin: ChEMBL document CHEMBL1149524

Assay: Half life in Wistar rat at 10 mg/kg, po
Assay type: ADME, organism-based
Set-up: dose 10 mg/kg, route oral
Setup Conditions: in vivo
Listed here are molecules together with their documented half-life.
Phrase the answer as number then unit, nothing more needed.

Example molecules with recorded half-life:
Molecule | Recorded Value
COc1ccc(NCCNC(=O)[C@H](CC2CCCCC2)NC(=O)c2ccc(-c3cccc(C(F)(F)F)c3)o2)cc1 | 2.43 h
C[C@@H](CNc1ccc(OC(F)(F)F)cc1)NC(=O)[C@H](CC1CCCCC1)NC(=O)[C@H]1CCCO1 | 0.967 h

half-life in this record for C[C@@H](CNc1ccc(OC(F)(F)F)cc1)NC(=O)[C@H](CC1CCCCC1)NC(=O)C1CCOC1 (some centres undefined) : 1.5 h

C[C@@H](CNc1ccc(OC(F)(F)F)cc1)NC(=O)[C@H](CS(=O)(=O)Cc1ccccc1)NC(=O)N1CCOCC1 has a reported half-life of 1.1 h

---

Tested on: Liver microsomes
Assay: Stability in rat liver microsomes
Format: ADME, Microsome
Stability vs 60%: at or above is 1 (yes), below is 0 (no).

// known answers, use as guide
Compound | Answer Label
C[C@@H](CNc1ccc(OC(F)(F)F)cc1)NC(=O)[C@H](CC1CCCCC1)NC(=O)[C@H]1CCCO1 | 1 (yes)
COc1ccc(NCCNC(=O)[C@H](CC2CCCCC2)NC(=O)c2ccc(-c3cccc(C(F)(F)F)c3)o2)cc1 | 0 (no)
C[C@@H](CN1CC(C)(C)c2cc(F)ccc21)NC(=O)[C@H](CC1CCCCC1)NC(=O)N1CCOCC1 | 0 (no)
COc1ccc(NCCNC(=O)[C@H](CC2CCCCC2)Nc2nc3ccccc3o2)cc1 | 0 (no)
C[C@@H](CNc1ccc(OC(F)(F)F)cc1)NC(=O)[C@H](CS(=O)(=O)Cc1ccccc1)NC(=O)N1CCOCC1 | 1 (yes)

Field: next compound
Test whether the compound C[C@@H](CNc1ccc(OC(F)(F)F)cc1)NC(=O)[C@H](CC1CCCCC1)NC(=O)C1CCOC1 (stereo partly specified) records Stability of 60% or higher.
0 (no)

---

Assay: Clearance in Wistar rat at 3 mg/kg, iv
Format: ADME, organism-based
Set-up: dose 3 mg/kg, route intravenous
Setup Conditions: in vivo
In this section, each of the molecules is paired with its reported clearance.
Response body: numeric value in mL/min/kg, unit text excluded.

Molecule | Units Text | clearance
C[C@@H](CNc1ccc(OC(F)(F)F)cc1)NC(=O)[C@H](CC1CCCCC1)NC(=O)[C@H]1CCCO1 | mL/min/kg | 35
C[C@@H](CNc1ccc(OC(F)(F)F)cc1)NC(=O)[C@H](CC1CCCCC1)NC(=O)C1CCOC1 (stereo partly drawn) | mL/min/kg | 39

According to the records, this molecule C[C@@H](CNc1ccc(OC(F)(F)F)cc1)NC(=O)[C@H](CS(=O)(=O)Cc1ccccc1)NC(=O)N1CCOCC1 displays clearance of 39

---

Data export: pKi values recorded with Cathepsin K (Homo sapiens).
Sequence (P43235 whole entry): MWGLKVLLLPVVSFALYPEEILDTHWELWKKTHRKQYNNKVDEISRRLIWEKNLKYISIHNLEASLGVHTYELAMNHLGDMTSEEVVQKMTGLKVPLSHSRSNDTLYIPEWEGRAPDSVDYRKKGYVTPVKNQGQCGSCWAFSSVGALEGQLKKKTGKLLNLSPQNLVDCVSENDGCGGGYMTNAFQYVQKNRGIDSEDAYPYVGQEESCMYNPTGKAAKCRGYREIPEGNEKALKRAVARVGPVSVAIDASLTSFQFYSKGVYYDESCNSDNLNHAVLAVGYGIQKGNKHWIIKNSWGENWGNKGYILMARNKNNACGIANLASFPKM
Note on units: pKi is unitless, being -log10 of a concentration expressed in mol/L.

Compound Structure String | pKi
O=C(N[C@@H](CC1CCCCC1)C(=O)NCCNc1ccc(OC(F)(F)F)cc1)c1ccc(-c2cccc(F)c2)o1 | 4.93

Noted for C[C@@H](CNc1ccc(OC(F)(F)F)cc1)NC(=O)[C@H](CSCc1ccccc1)NC(=O)N1CCOCC1 : its pKi reads 5.61

---

Observed pKi for Cathepsin S (Homo sapiens, UniProt P25774), reported per entry below.
For clarity, pKi is expressed as the negative log10 of concentration in mol/L.

In the examples that follow, each entry is paired with its recorded pKi.
Compound | Recorded Value
O=C(NCCNc1ccc(OC(F)(F)F)cc1)[C@H](CC1CCCCC1)NC(=O)N1CCOCC1 | 7.00
C[C@@H](CNc1ccc(OC(F)(F)F)cc1)NC(=O)[C@H](CC1CCCCC1)NC(=O)[C@H]1CCCO1 | 7.74
O=C(NCCNc1ccc(OC(F)(F)F)cc1)[C@H](Cc1ccccc1)NC(=O)N1CCOCC1 | 4.94

For record C[C@@H](CNc1ccc(OC(F)(F)F)cc1)NC(=O)[C@H](CC1CCCCC1)NC(=O)C1CCOC1 (stereo not given in full) the listed pKi is 7.68

Reported pKi of CC[C@@H](CNc1ccc(OC(F)(F)F)cc1)NC(=O)[C@H](CC1CCCCC1)NC(=O)N1CCOCC1 : 7.96

---

Experimental System: Procathepsin L (Homo sapiens, UniProt P07711)
Sequence (P07711 whole entry): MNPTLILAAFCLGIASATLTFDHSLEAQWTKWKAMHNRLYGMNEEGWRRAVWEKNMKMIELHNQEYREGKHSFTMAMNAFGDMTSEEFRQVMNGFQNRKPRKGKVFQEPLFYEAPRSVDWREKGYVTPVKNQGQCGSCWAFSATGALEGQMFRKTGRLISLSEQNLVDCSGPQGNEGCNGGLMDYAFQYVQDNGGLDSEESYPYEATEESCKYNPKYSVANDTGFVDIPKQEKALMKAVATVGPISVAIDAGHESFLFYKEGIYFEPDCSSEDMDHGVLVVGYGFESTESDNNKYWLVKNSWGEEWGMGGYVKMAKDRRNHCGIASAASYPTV
Kindly apply the following: class 1 if Ki is less than 3 µM, class 0 in every other case.

Solved cases below.
Molecule | Answer Label
O=C(N[C@@H](CC1CCCCC1)C(=O)NCCNc1ccc(OC(F)(F)F)cc1)C1CCOC1 (some centres not stated) | class 0
C[C@@H](CNc1ccc(OC(F)(F)F)cc1)NC(=O)[C@H](CC1CCCCC1)NC(=O)C1CCOC1 (some centres not stated) | class 0
CC[C@@H](CNc1ccc(OC(F)(F)F)cc1)NC(=O)[C@H](CC1CCCCC1)NC(=O)N1CCOCC1 | class 1

Ki strictly < 3 µM for this molecule? C[C@@H](CNc1ccc(OC(F)(F)F)cc1)NC(=O)[C@H](CC1CCCCC1)NC(=O)O[C@@H]1CCOC1
class 1

Lab note: Ki threshold 3 µM. Does this molecule come in strictly under it? O=C(N[C@@H](CC1CCCCC1)C(=O)NCCNc1ccc(OC(F)(F)F)cc1)c1ccco1
class 1

Hello, is Ki of the following molecule strictly smaller than 3 µM? CC(C)(C)C[C@H](NC(=O)N1CCOCC1)C(=O)NCCNc1ccc(OC(F)(F)F)cc1
class 0

Problem: For the molecule CS(=O)(=O)CC[C@@H](CNc1ccc(OC(F)(F)F)cc1)NC(=O)[C@H](CC1CCCCC1)NC(=O)N1CCOCC1 , is Ki under 3 µM?
class 1

---

Assay: Solubility at pH 6.8
Assay type: physicochemical
Setup Conditions: buffer
Listed compounds paired with reported solubility
The answer is to be given in µg/mL; state only the numeric part.

Look over these answered cases.
Compound | Recorded Value
C[C@@H](CNc1ccc(OC(F)(F)F)cc1)NC(=O)[C@H](CS(=O)(=O)Cc1ccccc1)NC(=O)N1CCOCC1 | 43
C[C@@H](CN1CC(C)(C)c2cc(F)ccc21)NC(=O)[C@H](CC1CCCCC1)NC(=O)N1CCOCC1 | 10
COc1ccc(NCCNC(=O)[C@H](CC2CCCCC2)Nc2nc3ccccc3o2)cc1 | 10
C[C@@H](CNc1ccc(OC(F)(F)F)cc1)NC(=O)[C@H](CC1CCCCC1)NC(=O)C1CCOC1 (stereo partly specified) | 30

Continue with the compound presented below.
Reported solubility of C[C@@H](CNc1ccc(OC(F)(F)F)cc1)NC(=O)[C@H](CC1CCCCC1)NC(=O)[C@H]1CCCO1 : 25

---

Assay: Bioavailability in Wistar rat at 10 mg/kg, po
Format: ADME, organism-based
Setup Conditions: in vivo
Endpoint Label: bioavailability (%)
Quick note: give the figure in %, leave out the unit.

Compound | bioavailability [%]
C[C@@H](CNc1ccc(OC(F)(F)F)cc1)NC(=O)[C@H](CC1CCCCC1)NC(=O)C1CCOC1 (some centres undefined) | 19
C[C@@H](CNc1ccc(OC(F)(F)F)cc1)NC(=O)[C@H](CC1CCCCC1)NC(=O)[C@H]1CCCO1 | 36

Below: the item to evaluate.
bioavailability recorded for this compound, C[C@@H](CNc1ccc(OC(F)(F)F)cc1)NC(=O)[C@H](CS(=O)(=O)Cc1ccccc1)NC(=O)N1CCOCC1 , is 16

---

Experimental System: Cathepsin S (Homo sapiens)
Sequence (P25774 whole entry): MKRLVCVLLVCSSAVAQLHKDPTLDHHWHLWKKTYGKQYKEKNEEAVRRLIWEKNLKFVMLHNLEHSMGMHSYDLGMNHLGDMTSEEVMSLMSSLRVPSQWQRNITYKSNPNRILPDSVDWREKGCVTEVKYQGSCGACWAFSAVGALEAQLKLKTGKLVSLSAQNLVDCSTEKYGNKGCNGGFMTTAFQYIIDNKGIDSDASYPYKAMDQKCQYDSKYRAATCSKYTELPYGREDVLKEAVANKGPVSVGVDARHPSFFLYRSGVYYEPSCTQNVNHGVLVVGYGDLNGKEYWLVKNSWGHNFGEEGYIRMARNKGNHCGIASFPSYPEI
Assay: Inhibition of cathepsin S
Type: single protein
Endpoint Label: Ki (nM)
Lab book: enter the figure in nM, no units written.

Known results for compounds:
Compound Structure String | Experimental System | Ki, nM
O=C(NCCNc1ccc(OC(F)(F)F)cc1)[C@H](CC1CCCCC1)NC(=O)[C@H]1CCCO1 | Cathepsin S (Homo sapiens) | 658
O=C(N[C@@H](CC1CCCCC1)C(=O)NCCNc1ccc(OC(F)(F)F)cc1)c1ccc(-c2cccc(F)c2)o1 | Cathepsin S (Homo sapiens) | 34
C[C@@H](CNc1ccc(OC(F)(F)F)cc1)NC(=O)[C@H](CC1CCCCC1)NC(=O)N1CCOCC1 | Cathepsin S (Homo sapiens) | 11
C[C@@H](CNc1ccc(OC(F)(F)F)cc1)NC(=O)[C@H](CC(C)(C)C)NC(=O)N1CCOCC1 | Cathepsin S (Homo sapiens) | 93

// Ki value for C[C@@H](CN1CC(C)(C)c2cc(F)ccc21)NC(=O)[C@H](CC1CCCCC1)NC(=O)N1CCOCC1 : 11

---

Recorded measurements of Cmax, one per entry
Assay: Cmax in Wistar rat at 10 mg/kg, po
Assay type: ADME, organism-based
Design: dose 10 mg/kg, route oral
Setup Conditions: in vivo
Express it in nM; write the number only.

// below: answered molecules
Molecule | Units Text | Cmax
C[C@@H](CNc1ccc(OC(F)(F)F)cc1)NC(=O)[C@H](CC1CCCCC1)NC(=O)C1CCOC1 (some centres undefined) | nM | 491
C[C@@H](CNc1ccc(OC(F)(F)F)cc1)NC(=O)[C@H](CS(=O)(=O)Cc1ccccc1)NC(=O)N1CCOCC1 | nM | 639
C[C@@H](CNc1ccc(OC(F)(F)F)cc1)NC(=O)[C@H](CC1CCCCC1)NC(=O)[C@H]1CCCO1 | nM | 1240

Now consider the entry below.
In plain terms, COc1ccc(NCCNC(=O)[C@H](CC2CCCCC2)NC(=O)c2ccc(-c3cccc(C(F)(F)F)c3)o2)cc1 has a documented Cmax of 19
